pIC50: −log10 of the molar value.
Collected from the literature: pIC50 of various compounds toward Carbonic anhydrase 2 (Homo sapiens).

compound-smiles	pIC50
O=P(O)(O)C(Nc1cccc(Br)c1)P(=O)(O)O	< 5.00
COc1ccc(S(=O)(=O)Nc2ccccc2)cc1OC	< 4.30
COc1ccc2cc(S(N)(=O)=O)n(S(=O)(=O)c3ccccc3)c2c1	< 5.00
Sc1cccc2cccnc12	< 3.70
Cc1ccc(S)c2ncccc12	< 3.70

====

Below are IC50 measurements against Carbonic anhydrase 2 (Homo sapiens, UniProt P00918) drawn from the literature.

compound-smiles	IC50
Cn1c(-c2ccc(Cl)cc2)nc2cc(B(O)O)ccc21	> 0.36 µM
O=P(O)(O)C(Nc1ccc(Br)cc1)P(=O)(O)O	> 10 µM
Cc1cc(S)c2ncccc2c1	> 100 µM
Cn1c(-c2ccccc2)nc2cc(S(N)(=O)=O)ccc21	> 0.36 µM
